molecular target: Hypoxia-inducible factor 1-alpha (Homo sapiens) (UniProt Q16665); assay: HIF-2a and HIF-1a reporter inhibition panel, dose response, selectivity assay for HIF-2a inhibitor project, cell-based, luminescence (AID 651581); conditions: HIF-1a, run 2
Sequence (Q16665 whole entry, looked up): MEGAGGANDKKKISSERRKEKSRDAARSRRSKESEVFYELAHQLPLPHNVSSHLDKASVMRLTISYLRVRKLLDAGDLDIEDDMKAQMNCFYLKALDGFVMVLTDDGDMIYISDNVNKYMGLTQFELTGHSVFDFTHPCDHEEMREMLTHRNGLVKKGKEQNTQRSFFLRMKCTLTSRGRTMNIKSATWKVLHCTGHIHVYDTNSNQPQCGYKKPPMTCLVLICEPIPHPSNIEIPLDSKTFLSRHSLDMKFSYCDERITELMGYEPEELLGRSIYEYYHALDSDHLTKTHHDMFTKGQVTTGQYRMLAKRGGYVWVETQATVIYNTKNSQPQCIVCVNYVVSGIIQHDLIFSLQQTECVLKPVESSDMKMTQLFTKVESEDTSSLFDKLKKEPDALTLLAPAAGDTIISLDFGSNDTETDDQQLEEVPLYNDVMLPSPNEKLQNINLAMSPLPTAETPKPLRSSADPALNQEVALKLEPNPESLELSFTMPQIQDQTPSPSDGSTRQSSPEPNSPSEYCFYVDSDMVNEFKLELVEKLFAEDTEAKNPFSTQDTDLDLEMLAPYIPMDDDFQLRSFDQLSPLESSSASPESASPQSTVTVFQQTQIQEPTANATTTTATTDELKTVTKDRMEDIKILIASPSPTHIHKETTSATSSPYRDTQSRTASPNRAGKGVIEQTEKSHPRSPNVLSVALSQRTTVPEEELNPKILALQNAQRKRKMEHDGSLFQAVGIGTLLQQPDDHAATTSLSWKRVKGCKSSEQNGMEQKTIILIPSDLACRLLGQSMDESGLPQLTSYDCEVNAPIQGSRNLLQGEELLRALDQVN
We label by threshold. Values of IC50 strictly beneath 20 µM are satisfied. Values of 20 µM and up are not satisfied.

[[record]]
compound = "CCOC(=O)CNC(=O)CSc1nnc(NC(=O)c2ccc(C)cc2)s1"
target_system = "Hypoxia-inducible factor 1-alpha (Homo sapiens) (UniProt Q16665)"
group = "not satisfied"

[[record]]
compound = "O=C(O)c1ccc2nc(-c3ccccc3)sc2c1"
target_system = "Hypoxia-inducible factor 1-alpha (Homo sapiens) (UniProt Q16665)"
group = "not satisfied"

[[record]]
compound = "O=C(O)c1cccc(N/N=C/c2cccs2)c1"
target_system = "Hypoxia-inducible factor 1-alpha (Homo sapiens) (UniProt Q16665)"
group = "not satisfied"

[[record]]
compound = "O=C(O)c1cccc(C(=O)Nc2cccc(NC(=O)C3CCCO3)c2)c1 (stereo unspecified)"
target_system = "Hypoxia-inducible factor 1-alpha (Homo sapiens) (UniProt Q16665)"
group = "not satisfied"

[[record]]
compound = "C(=NNc1ccc2ccccc2n1)c1ccccn1"
target_system = "Hypoxia-inducible factor 1-alpha (Homo sapiens) (UniProt Q16665)"
group = "not satisfied"

[[record]]
compound = "O=C(Nc1ccccc1)c1nnsc1S(=O)(=O)c1ccc(Cl)cc1"
target_system = "Hypoxia-inducible factor 1-alpha (Homo sapiens) (UniProt Q16665)"
group = "not satisfied"

[[record]]
compound = "Cn1c(/C=C/c2ccc(Cl)cc2)c([N+](=O)[O-])c(=O)n(C)c1=O"
target_system = "Hypoxia-inducible factor 1-alpha (Homo sapiens) (UniProt Q16665)"
group = "not satisfied"

[[record]]
compound = "NNC(=O)COc1ccc(-c2nccc(-c3ccc(F)cc3)n2)cc1"
target_system = "Hypoxia-inducible factor 1-alpha (Homo sapiens) (UniProt Q16665)"
group = "satisfied"

[[record]]
compound = "CCNC(=O)NC(=O)COC(=O)CCCSc1nc2ccccc2s1"
target_system = "Hypoxia-inducible factor 1-alpha (Homo sapiens) (UniProt Q16665)"
group = "satisfied"

[[record]]
compound = "Cc1cc(C)cc(C(=O)NC(=S)Nc2ccc(-c3cc4ccccc4oc3=O)cc2)c1"
target_system = "Hypoxia-inducible factor 1-alpha (Homo sapiens) (UniProt Q16665)"
group = "not satisfied"


###

biological target: Endothelial PAS domain-containing protein 1 (Homo sapiens); assay: HIF-2a and HIF-1a reporter inhibition panel, dose response, selectivity assay for HIF-2a inhibitor project, cell-based, luminescence (AID 651581); details: HIF-2a, run 1
value kind: IC50 (µM)

[[record]]
molecule = "CCOC(=O)C1CCN(Cc2cc(=O)oc3c(C)c(C)ccc23)CC1"
operator = "="
reported_measurement = 7.96

[[record]]
molecule = "COC(=O)c1cccc(NC(=O)NC(=O)c2ccccc2Cl)c1"
operator = "="
reported_measurement = 7.45

[[record]]
molecule = "O=C(c1ccccc1)N1CCSc2sccc2C1=O"
operator = "="
reported_measurement = 6.98

[[record]]
molecule = "COC(=O)c1cccc(-c2noc(-c3ccccc3F)n2)c1"
operator = "<"
reported_measurement = 10

[[record]]
molecule = "Cc1ccc(S(=O)(=O)ON2C(=O)c3ccccc3C2=O)c(C)c1"
operator = "="
reported_measurement = 5.63

[[record]]
molecule = "CCOC(=O)c1sc(NC(=O)c2cc3c(s2)CCC(C)C3)nc1C (centres undefined)"
operator = "="
reported_measurement = 0.2

[[record]]
molecule = "Cc1c(CCC(=O)N[C@@H](CC(C)C)C(=O)O)c(=O)oc2cc3oc4c(c3cc12)CCCC4"
operator = "="
reported_measurement = 1.61

[[record]]
molecule = "Cc1nc2cc(-c3ccc(Cl)cc3)nn2c(C)c1CCC(=O)NCc1ccco1"
operator = "="
reported_measurement = 1.43

[[record]]
molecule = "C=C1C(=O)OC2CC3(C)OC3C3OC3C3=CC(OC3=O)C12 (centres undefined)"
operator = "="
reported_measurement = 11.4

[[record]]
molecule = "CCCCOC(=O)c1ccc(NC(=S)NC(=O)c2c(Br)c(C)nn2C)cc1"
operator = "="
reported_measurement = 0.821

[[record]]
molecule = "CCOC(=O)c1ccc(Oc2nc(NC(C)(C)C)nc(N(C)C)n2)cc1"
operator = "="
reported_measurement = 8.84

[[record]]
molecule = "Cc1ccc(/C=N/Nc2cccc(C(=O)O)c2)s1"
operator = "<"
reported_measurement = 30

[[record]]
molecule = "Cc1nn(-c2ccccc2Cl)c(Cl)c1/C=N/Nc1cccc(C(=O)O)c1"
operator = "="
reported_measurement = 23.5

[[record]]
molecule = "Nc1nc2ccc(S(=O)(=O)c3ccc4nc(N)sc4c3)cc2s1"
operator = "="
reported_measurement = 14.7

[[record]]
molecule = "O=C(Nc1ccccc1)c1nnsc1S(=O)(=O)c1ccc(Cl)cc1"
operator = "="
reported_measurement = 7.38

[[record]]
molecule = "N=c1nc(SCCC(=O)O)ss1"
operator = "="
reported_measurement = 6.36

[[record]]
molecule = "COc1cccc(C(=O)C(C#N)=C(SC)SC)c1"
operator = "="
reported_measurement = 5.91

[[record]]
molecule = "Cc1nc2cc(-c3cccc(F)c3)nn2c(C)c1CCC(=O)N1CCC2(CC1)OCCO2"
operator = "="
reported_measurement = 1.27

[[record]]
molecule = "COc1ccc(OCc2cccc(C(=O)Nn3cc([N+](=O)[O-])cn3)c2)cc1"
operator = "="
reported_measurement = 11.3

[[record]]
molecule = "N#C/C(=C\\c1ccccc1)C(=O)N(c1ccccn1)C1CCCCC1"
operator = "="
reported_measurement = 14.9

[[record]]
molecule = "Cc1ccc(C)c(-c2nc3cc(N)ccc3o2)c1"
operator = "="
reported_measurement = 3.35

[[record]]
molecule = "O=C(O)c1cccc(N/N=C/c2cccs2)c1"
operator = "="
reported_measurement = 5.56

[[record]]
molecule = "CC(C)(C)c1ccc(-c2noc(CCC(=O)NCC3CCCO3)n2)cc1 (centres undefined)"
operator = "<"
reported_measurement = 10

[[record]]
molecule = "Cc1ccc(NC(=O)c2cc(N3C(=O)C=CC3=O)ccc2N2CCOCC2)cc1"
operator = "="
reported_measurement = 9.64

[[record]]
molecule = "O=C(O)c1cccc(CSc2nnc(-c3ccc(Cl)cc3)o2)c1"
operator = "="
reported_measurement = 1.87

[[record]]
molecule = "CNC(=O)NC(=O)COC(=O)CCCSc1nc2ccccc2s1"
operator = "="
reported_measurement = 5.6

[[record]]
molecule = "CCOc1ccc(OCc2cccc(C(=O)N3CCOCC3)c2)cc1"
operator = "="
reported_measurement = 7.59

[[record]]
molecule = "CCN(CC)S(=O)(=O)c1ccc(NC(=O)c2cccnc2Cl)c(NC(=O)c2cccnc2Cl)c1"
operator = "="
reported_measurement = 9.42

[[record]]
molecule = "CC1(C)CC[C@]2(C(=O)O)CC[C@]3(C)C(=CC[C@@H]4[C@@]5(C)CC[C@H](O[C@@H]6O[C@H](C(=O)O)[C@@H](O)[C@H](O[C@@H]7OC[C@H](O)[C@H](O)[C@H]7O)[C@H]6O)C(C)(C)[C@@H]5CC[C@]43C)[C@@H]2C1"
operator = "="
reported_measurement = 14.3

[[record]]
molecule = "O=C(O)c1cc(N/N=C/c2ccc3c(c2)OCCO3)ccc1Cl"
operator = "<"
reported_measurement = 30

[[record]]
molecule = "CCOc1ccc(C(=O)Nc2nnc(SCC(=O)NCC3CCCO3)s2)cc1 (centres undefined)"
operator = "<"
reported_measurement = 30

[[record]]
molecule = "CC(=O)N(C(C)=O)c1ccc(Oc2ccc(Oc3ccc(N(C(C)=O)C(C)=O)cc3)cc2)cc1"
operator = ">"
reported_measurement = 99

[[record]]
molecule = "CCOC(=O)Cc1csc(NC(=S)NC(=O)c2ccccc2C)n1"
operator = "="
reported_measurement = 15

[[record]]
molecule = "COc1cccc(/C=N/Nc2ncccc2[N+](=O)[O-])c1OC"
operator = "="
reported_measurement = 8.21

[[record]]
molecule = "O=C(Nc1ccc(NC(=S)NC(=O)c2ccco2)cc1)c1ccc(Br)cc1"
operator = "="
reported_measurement = 1.18

[[record]]
molecule = "CCc1ccc(S(=O)(=O)ON2C(=O)c3ccccc3C2=O)cc1"
operator = "="
reported_measurement = 10.6

[[record]]
molecule = "Cc1c(CCC(=O)O)c(=O)oc2cc3oc4c(c3cc12)CCCC4"
operator = "="
reported_measurement = 0.267

[[record]]
molecule = "O=S(=O)(Nc1cccc2cccnc12)c1ccccc1"
operator = "="
reported_measurement = 3.54

[[record]]
molecule = "CCOc1cc(/C=N/Nc2cccc(C(=O)O)c2)ccc1OC(=O)c1ccccc1"
operator = "="
reported_measurement = 4.44

[[record]]
molecule = "O=C(c1ccccc1)c1cc(Cl)ccc1N1C(=O)C=CC1=O"
operator = "="
reported_measurement = 7.05

[[record]]
molecule = "Nc1ccc(-c2nnn(CC(=O)N3CCCCC3)n2)cc1"
operator = "="
reported_measurement = 18.3

[[record]]
molecule = "NCCN1C(=O)S/C(=C\\c2ccc3c(c2)OCO3)C1=O"
operator = "="
reported_measurement = 1.15

[[record]]
molecule = "CCOc1ccc(OCc2cccc(C(=O)N/N=C/c3cccnc3)c2)cc1"
operator = "="
reported_measurement = 2.13

[[record]]
molecule = "Cc1ccc(S(=O)(=O)c2ncccc2[N+](=O)[O-])cc1"
operator = "="
reported_measurement = 10


Hello, the source for this data is PubChem BioAssay AID651581, in case you need it.
